biological target: Cyclophilin A (Homo sapiens, UniProt P62937); construct: made in house; assay: AlphaLISA inhibition of binding of biotinylated Cyclosporin A to FLAG tagged Cyclophilin A; conditions: read-out: IC50 value of CsA binding to Cyclophilin A
Sequence (P62937 whole entry, species assumed): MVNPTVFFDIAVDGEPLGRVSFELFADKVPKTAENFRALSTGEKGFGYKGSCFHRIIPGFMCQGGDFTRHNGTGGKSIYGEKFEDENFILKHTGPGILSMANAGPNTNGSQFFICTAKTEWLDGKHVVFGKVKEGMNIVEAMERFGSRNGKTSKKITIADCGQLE
pIC50: −log10 of the molar value. Where a SMILES comes first, the peptide text is derived from it. [ ]: non-standard residue; d: D form. MeBmt = C/C=C/C[C@@H](C)[C@@H](O)[C@H](NC)C(=O)O; NMeL = CN[C@@H](CC(C)C)C(=O)O; NMeV = CN[C@H](C(=O)O)C(C)C; NMeA = CN[C@@H](C)C(=O)O; Abu = CC[C@H](N)C(=O)O; Sar = CNCC(=O)O
QUANTITY_MEASURED: pIC50

[
  {
    "MOLECULE": "C/C=C/C[C@@H](C)[C@@H](O)[C@H]1C(=O)N[C@@H](CC)C(=O)N(C)CC(=O)N(C)CC(=O)N[C@@H](CC(C)C)C(=O)N(C)[C@@H](CC(C)C)C(=O)N[C@@H](CC(C)C)C(=O)N[C@H](C)C(=O)N(C)[C@@H](CC(C)C)C(=O)N(C)[C@@H](CC(C)C)C(=O)N(C)[C@@H](C(C)C)C(=O)N1C [Compound C61] (cyclo([MeBmt][Abu][Sar][Sar]L[NMeL]L[dA][NMeL][NMeL][NMeV]))",
    "pIC50": "> 5.70"
  }
]

Lab note: next molecule to report on.
Task: Given C/C=C/C[C@@H](C)[C@@H](O)[C@H]1C(=O)N[C@@H](CC)C(=O)N(C)CC(=O)N(C)[C@@H](C)C(=O)N[C@@H](C)C(=O)N(C)CC(=O)N[C@@H](C)C(=O)N[C@H](C)C(=O)N(C)[C@@H](CC(C)C)C(=O)N(C)[C@@H](CC(C)C)C(=O)N(C)[C@@H](C(C)C)C(=O)N1C [Compound C18] (cyclo([MeBmt][Abu][Sar][NMeA]A[Sar]A[dA][NMeL][NMeL][NMeV])) , respond with its pIC50.
Output: > 5.70
